# Tested on: UACC-62
# measurement-description: NCI tumour cell line growth inhibition, 48 h
Calls of active or inactive are those of the source. Rule as the data show it: active = GI50 up to about 1.1 µM and inactive = higher.
Returns: one label drawn from 1 (yes) for active, 0 (no) for inactive

compound	tested-on	group
CCOC(=O)C1COc2cc(-c3cc(=O)c4ccccc4o3)ccc2O1 (stereo unspecified)	UACC-62	0 (no)

Inquiry: Fill in: this test's call for `NC(=O)c1nnsc1NC=O` is ___
Reply text: 0 (no)

Inquiry: Fill in: this test's call for COc1cc(C2c3cc4c(cc3[C@@H](Nc3ccc(N(C)C)cc3)[C@H]3COC(=O)C23)OCO4)cc(OC)c1O (stereo partly specified) is ___
Reply text: 1 (yes)

====

# Test system: MCF7
# measurement-description: NCI tumour cell line growth inhibition, 48 h
Calls of active or inactive are those of the source. Rule as the data show it: active = GI50 up to about 1.1 µM and inactive = higher.
measured-metric: GI50

CC(C)c1ccc2nc3ccc(C(=O)NCCN(C)C)cn3c(=O)c2c1 16.3 µM (inactive)
Cc1ccc(S(=O)(=O)Nn2c(O)c(C#N)c(-c3ccc(Cl)cc3)c(C#N)c2=O)cc1 > 100 µM (inactive)
NC(=O)Nc1n[nH]c(-c2ccccc2)n1 > 100 µM (inactive)

# ---- query molecule ----
Inquiry: Kindly indicate its recorded GI50. Item: `Cc1onc(-c2c(F)cccc2Cl)c1C(=O)N[C@@H]1C(=O)N2[C@@H]1SC(C)(C)[C@@H]2C(=O)O`
Reply text: > 100 µM (inactive)

====

# Tested on: BT-549
# measurement-description: NCI tumour cell line growth inhibition, 48 h
Active and inactive are the calls of the source. Cut-off read from the data, not from the text of the source: active = GI50 up to about 1.1 µM and inactive = higher.
Returns: one label drawn from active, inactive

Example entries and their recorded answers appear below.
compound	tested-on	group
CN(Cc1cnc2nc(N)nc(N)c2n1)c1ccc(C(=O)NCS(=O)(=O)O)cc1	BT-549	inactive
OC1(C(F)(F)F)OCCN=C1C(F)(F)F (stereo not drawn)	BT-549	inactive
COc1ccc(C(=C2C(=O)OC(=O)C2=C(C)C)c2ccc(OC)cc2)cc1	BT-549	inactive
O=C1C/C(=C\O)C(=O)c2ccccc2N1	BT-549	inactive
COC(=O)NCCc1n[nH]c2c1C(=O)C=C(Nc1ccccc1OC)C2=O	BT-549	inactive
Cc1ccc(/N=C2N=C(Cl)/C(=C\c3ccco3)N\2)cc1	BT-549	inactive
CCOC(=O)Cn1c(=O)c2cc(-c3ccccc3)cc3c(Cl)nc4c(OC)c(OC)cc1c4c32	BT-549	inactive
O/N=C1\SC(=N\O)/C(=N/O)S\C1=N/O	BT-549	inactive
CC1(C)CCC2=C(O1)/C(=N\Nc1ccc(S(N)(=O)=O)cc1)c1ccccc1C2=O	BT-549	inactive
CC(Oc1ccc(Cl)cc1Cl)C(=O)NN1C(=O)CSC1c1ccccc1 (stereo not drawn)	BT-549	inactive

Inquiry: Fill in: this test's call for `O=C1c2cccc3cc([N+](=O)[O-])cc(c23)C(=O)N1CCCN1CCN(CCCNc2ccc3ncn4c5ccccc5c(=O)c2c34)CC1` is ___
Reply text: active

Inquiry: Fill in: this test's call for `C/C(=N\NC(=S)N1CCCCCC1)c1cccc2cccnc12` is ___
Reply text: inactive

Inquiry: Fill in: this test's call for `Clc1ccc2sc(-n3ccc4ccccc43)nc2c1` is ___
Reply text: inactive

====

# Test system: UACC-257
# measurement-description: NCI tumour cell line growth inhibition, 48 h
Activity calls are given as the source filed them. No stated cut-off is given here; in the data, active = GI50 up to about 1.1 µM and inactive = higher.
This listing pairs molecules with measured GI50.

// solved cases for GI50 follow
molecule	data-value
COc1ccccc1C(=O)c1ccc2ccccc2c1	30.6 µM (inactive)
O=C(O)c1ccc2c(c1)C(=O)N(c1ccc(S(=O)(=O)c3ccc(N4C(=O)c5ccc(C(=O)O)cc5C4=O)cc3)cc1)C2=O	> 100 µM (inactive)
COc1ccccc1N1C(=O)CSC1c1cccc(Oc2ccccc2)c1 (stereo not given)	16.7 µM (inactive)
CN(C)C(=O)Oc1c(-c2ccccc2)c(=O)n2c3ccccc3n3c(=O)n(C)c(=O)c1c23	> 100 µM (inactive)

# ---- query molecule ----
Inquiry: Give UACC-257 GI50 for the following molecule: `Cc1c(C(=O)CC(=O)C(=O)Nc2cccc(C(F)(F)F)c2)[n+]([O-])c2ccccc2[n+]1[O-]`
Reply text: 2.56 µM (inactive)
